tested on: RPMI-8226 leukemia; assay: NCI tumour cell line growth inhibition, 48 h
Hi there, I'd appreciate the recorded TGI for every entry that follows.

// query Give the reported value of TGI for this record: COc1cc(CCc2cccnc2)cc(OC)c1OC
// result > 100 µM

// query Give the reported value of TGI for this record: COc1ccc2c(c1)C(=O)c1c-2n(CCCN)c(=O)c2ccccc12
// result 0.0316 µM

// query Give the reported value of TGI for this record: O=P([O-])(O)OP(=O)([O-])O.[NH-][C@H]1CCCC[C@@H]1[NH-].[OH-].[OH-].[Pt+4]
// result > 100 µM

// query Give the reported value of TGI for this record: Cc1ccccc1NC(=S)Nc1ccccn1
// result > 100 µM

// query Give the reported value of TGI for this record: c1csc(-c2ccc(-c3ccc(-c4ccc(-c5cccs5)s4)s3)s2)c1
// result > 100 µM

// query Give the reported value of TGI for this record: O=C(O)CSCc1cccc2ccccc12
// result > 100 µM

// query Give the reported value of TGI for this record: Cc1ccc(NCCCN2CCN(CCCNc3ccc(C)c4sc5ccccc5c(=O)c34)CC2)c2c(=O)c3ccccc3sc12
// result > 100 µM

// query Give the reported value of TGI for this record: C/C=C/[C@@]1(OC(=O)c2ccccc2)C[C@@H]2CCCC[C@@H]21
// result 38.5 µM

// query Give the reported value of TGI for this record: O=C(/C=C/c1ccc(B(O)O)cc1)/C=C/c1ccc(B(O)O)cc1
// result 8.21 µM

// query Give the reported value of TGI for this record: O=S(=O)(Oc1ccc2oc3ccccc3c2c1-c1c(OS(=O)(=O)C(F)(F)F)ccc2oc3ccccc3c12)C(F)(F)F
// result > 100 µM

// query Give the reported value of TGI for this record: C=C(Cn1c(=O)c2ccccc2c2ccccc21)c1ccc(C(=O)Nc2ccccc2N)cc1
// result 4.36 µM
